Target: A disintegrin and metalloproteinase with thrombospondin motifs 5 (Homo sapiens)
Sequence (Q9UNA0 whole entry): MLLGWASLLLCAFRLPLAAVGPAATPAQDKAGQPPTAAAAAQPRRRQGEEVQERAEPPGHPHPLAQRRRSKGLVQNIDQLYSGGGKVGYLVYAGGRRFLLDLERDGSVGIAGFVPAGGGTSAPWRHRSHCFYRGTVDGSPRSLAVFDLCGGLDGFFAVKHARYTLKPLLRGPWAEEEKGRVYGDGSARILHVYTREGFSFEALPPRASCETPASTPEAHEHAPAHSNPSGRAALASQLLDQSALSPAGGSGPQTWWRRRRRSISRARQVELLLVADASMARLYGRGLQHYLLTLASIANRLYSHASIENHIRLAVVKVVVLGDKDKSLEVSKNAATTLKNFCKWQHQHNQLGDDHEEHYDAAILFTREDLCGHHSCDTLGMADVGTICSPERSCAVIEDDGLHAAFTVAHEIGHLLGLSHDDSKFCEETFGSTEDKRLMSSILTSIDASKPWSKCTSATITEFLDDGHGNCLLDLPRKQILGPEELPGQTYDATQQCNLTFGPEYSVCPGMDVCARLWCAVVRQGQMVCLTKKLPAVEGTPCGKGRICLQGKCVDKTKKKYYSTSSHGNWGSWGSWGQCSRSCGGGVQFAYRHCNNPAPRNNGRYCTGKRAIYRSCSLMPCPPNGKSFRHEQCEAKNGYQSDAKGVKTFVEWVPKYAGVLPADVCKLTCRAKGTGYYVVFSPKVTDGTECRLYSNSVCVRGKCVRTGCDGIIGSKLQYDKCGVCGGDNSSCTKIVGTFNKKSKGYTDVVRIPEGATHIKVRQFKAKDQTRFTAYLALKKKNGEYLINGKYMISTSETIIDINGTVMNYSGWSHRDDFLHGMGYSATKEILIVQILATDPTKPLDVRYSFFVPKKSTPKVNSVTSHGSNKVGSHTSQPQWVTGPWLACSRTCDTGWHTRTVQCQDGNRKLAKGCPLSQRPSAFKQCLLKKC
Kindly supply the reported log10 of IC50 values for the records listed here.
Units before log transform: nM; reported quantity: IC50; transform: log10.

Lab note: measured log10 of IC50 of COc1ccc(C2=NNC3(S2)C(=O)N(Cc2ccccc2)c2ccccc23)cc1 (stereo not given) was 2.94

Kindly note the recorded log10 of IC50 for O=C1Nc2ccccc2C12NN=C(c1ccccc1)S2 (stereo not given) , which is 4.38

For record CCCc1cc2c(cc1C)C1(NN=C(c3ccc(OC)cc3)S1)C(=O)N2Cc1ccccc1 (stereo not given) the listed log10 of IC50 is 2.98

Just so you know, measured log10 of IC50 for Cc1ccc(C2=NNC3(S2)C(=O)N(C)c2ccccc23)cc1 (stereo not given) came out at 3.66

The reported log10 of IC50 of the compound Cc1ccc(C2=NNC3(S2)C(=O)N(c2ccccc2C)c2ccc(C)cc23)cc1 (stereo not given) was 3.08

Input CCc1ccc2c(c1)C1(NN=C(c3ccccc3)S1)C(=O)N2 (stereo not given) . Output log10 of IC50: 3.98

Data point: COc1ccc(C2=NNC3(S2)C(=O)Nc2cc(Cl)ccc23)cc1 (stereo not given) ; log10 of IC50 = 3.08

Value of measured log10 of IC50 for the entry CC(C)N1C(=O)C2(NN=C(c3ccccc3)S2)c2ccccc21 (stereo not given) : 3.49

Reported log10 of IC50 for CCc1ccc2c(c1)C1(NN=C(c3ccc(OC)cc3)S1)C(=O)N2 (stereo not given) was 3.15

Short answer for Cc1ccc(C2=NNC3(S2)C(=O)Nc2ccccc23)cc1 (stereo not given) : log10 of IC50 was 3.57

Lab note: COc1ccc(C2=NNC3(S2)C(=O)Nc2ccc(Cl)cc23)cc1 (stereo not given) gave log10 of IC50 of 3.30

Lab note: measured log10 of IC50 of Cc1ccc(C2=NNC3(S2)C(=O)Nc2ccc(C)cc23)cc1 (stereo not given) was 3.48

So, COc1ccc(C2=NNC3(S2)C(=O)N(C)c2ccccc23)cc1 (stereo not given) ? Its log10 of IC50 was 3.88

Recorded result, CCc1ccc2c(c1)C1(NN=C(c3ccc(C)cc3)S1)C(=O)N2 (stereo not given) , log10 of IC50: 3.28

Notebook: COc1ccc(C2=NNC3(S2)C(=O)Nc2ccc(C)cc23)cc1 (stereo not given) , log10 of IC50 read as 3.40
